Origin of the recorded values: patent US8592383B2

Molecular target: hCRTH2 (Homo sapiens, UniProt Q9Y5Y4)
Sequence (Q9Y5Y4 1-395): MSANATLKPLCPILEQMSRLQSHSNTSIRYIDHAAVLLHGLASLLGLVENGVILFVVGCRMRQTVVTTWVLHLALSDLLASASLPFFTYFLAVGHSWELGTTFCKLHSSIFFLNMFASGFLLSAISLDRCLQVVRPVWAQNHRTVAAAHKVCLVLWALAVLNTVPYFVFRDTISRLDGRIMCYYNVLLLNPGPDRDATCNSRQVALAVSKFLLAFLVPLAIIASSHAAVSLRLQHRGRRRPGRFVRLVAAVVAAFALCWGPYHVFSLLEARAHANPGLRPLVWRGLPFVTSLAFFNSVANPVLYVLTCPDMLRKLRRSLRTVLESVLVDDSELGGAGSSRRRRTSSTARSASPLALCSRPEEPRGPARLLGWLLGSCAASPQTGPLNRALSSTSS
Design: expressed in transfected cells; host or cells: HEK (human embryonic kidney) cells expressing hCRTH2
Details: Radioligand Binding Assay B; Table B, rated A-D
readoutType: Ki

Example entries and their recorded answers appear below.
* CCN(C(=O)CCC(=O)O)[C@@H]1c2ccccc2N(C(=O)OCc2ccccc2)[C@@H]2CCC[C@H]12 (racemic) | 5.1 to 20 nM
* COC(=O)CCC(=O)N(C1CC1)C1c2ccccc2N(C(=O)c2ccsc2)C2CCCC21 (racemic) [14o] | 201 to 7500 nM
* O=C(O)CCC(=O)N(C1CC1)C1c2ccccc2N(C(=O)c2ccsc2)C2CCCC21 (racemic) [14E] | 5.1 to 20 nM

Give the reported Ki for CN(C(=O)/C=C/C(=O)O)C1c2ccccc2N(C(=O)c2ccccc2)C2CCCC12 (racemic) [17P] (system: hCRTH2 (Homo sapiens, UniProt Q9Y5Y4)).
201 to 7500 nM

hCRTH2 (Homo sapiens, UniProt Q9Y5Y4) / Ki / O=C(O)COC(=O)N(C1CC1)C1c2ccccc2N(c2nnc(-c3ccccc3)o2)C2CCCC21 (racemic) : value?
5.1 to 20 nM

* * *

Biological target: hCRTH2 (Homo sapiens, UniProt Q9Y5Y4)
Sequence (Q9Y5Y4 1-395): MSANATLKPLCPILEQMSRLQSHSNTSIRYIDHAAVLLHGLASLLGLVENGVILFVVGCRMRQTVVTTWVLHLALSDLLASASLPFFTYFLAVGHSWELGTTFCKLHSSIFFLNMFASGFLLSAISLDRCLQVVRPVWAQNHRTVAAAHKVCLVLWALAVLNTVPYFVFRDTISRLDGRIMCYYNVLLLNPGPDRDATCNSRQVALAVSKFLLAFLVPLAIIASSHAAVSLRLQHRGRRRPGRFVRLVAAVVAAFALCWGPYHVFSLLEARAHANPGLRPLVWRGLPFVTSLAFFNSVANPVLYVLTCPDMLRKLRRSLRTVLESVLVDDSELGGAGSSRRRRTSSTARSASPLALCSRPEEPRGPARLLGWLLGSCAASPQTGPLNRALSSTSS
Assay: biochemical
Conditions: Ki, Radioligand Binding Assay A; 3.0 nM [3H]PGD2, HEK-hCRTH2 membranes
pKi: −log10 of the molar value.
readoutType: pKi

- CN(C(=O)CCC(=O)O)C1c2ccccc2N(C(=O)OCc2ccccc2)C2CCCC12 (racemic) [17U]: 6.22
- O=C(O)c1ccccc1C(=O)N(C1CC1)[C@@H]1c2ccccc2N(C(=O)c2ccc(OC(F)(F)F)cc2)[C@@H]2CCC[C@@H]21 (racemic) [17Ci]: 6.08
- CCN(C(=O)CCC(=O)O)C1c2ccccc2N(C(=O)OCc2ccc(F)c(F)c2)C2CCCC12 (single isomer, unassigned) [compound 72]: 7.80

a: O=C(O)CCCN(C1CC1)C1c2ccccc2N(C(=O)OCc2ccccc2)C2CCCC21 (single isomer, unassigned) [compound 60]
b: O=C(O)CCC(=O)N(C1CC1)C1c2ccccc2N(C(=O)c2ccco2)C2CCCC21 (racemic) [17BL]
c: O=C(O)COC(=O)N(C1CC1)C1c2ccccc2N(c2nnc(Cc3ccc(OC(F)(F)F)cc3)o2)C2CCCC21 (single isomer, unassigned) [38G]
d: O=C(O)CCC(=O)N(C1CC1)C1c2ccc(Cl)cc2N(C(=O)OCc2ccccc2)C2CCCC21 (single isomer, unassigned) [9A]
Could you please sort these 4 entries by pKi from high to low? Put the labels in the order asked and list them.
d, a, b, c
